tested on: KARPAS-45; assay: cells; assay type: functional, cell-based, Homo sapiens; settings: Homo sapiens, KARPAS-45;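 also: inhibition of cell line growth, read out through a viability assay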
Description: SANGER: Inhibition of human KARPAS-45 cell growth in a cell viability assay.
Measured parameter: log10(IC50) (log10 of the value in nM)
In our notation, the value equals log10 of IC50 in nM.

Molecule	log10(IC50)
COc1cc2c(Nc3ccc(NC(=O)c4ccccc4)cc3)ncnc2cc1OCCCN1CCOCC1	2.58
Cc1cc([N+](=O)[O-])ccc1NS(=O)(=O)c1cc(Cl)ccc1Cl	3.65
COc1cc2ncn(-c3cc(OCc4ccccc4C(F)(F)F)c(C(N)=O)s3)c2cc1OC [GW843682X]	0.79
CC(C)CCN1c2nc(Nc3cc(F)c(O)c(F)c3)ncc2N(C)C(=O)C1C (centres undefined)	2.22

Given the molecule `Cn1cnc2c(F)c(Nc3ccc(Br)cc3Cl)c(C(=O)NOCCO)cc21` , write its reported log10(IC50).
3.32
